Below: compounds with IC50 recorded for Tyrosine-protein kinase JAK2 (Homo sapiens) in separate published works.

{"compound": "Cc1nc(F)ccc1NC(=O)N1CCC(N2CC(CC#N)(n3cc(-c4ncnc5[nH]ccc45)cn3)C2)CC1", "study-system": "Tyrosine-protein kinase JAK2 (Homo sapiens)", "IC50": "10 to 50 nM"}
{"compound": "N#CCC(C1CCC1)n1cc(-c2ccnc(Nc3ccc(N4CCCCC4=O)cc3)n2)cn1 (racemic)", "study-system": "Tyrosine-protein kinase JAK2 (Homo sapiens)", "IC50": "< 100 nM"}
{"compound": "N#Cc1cc(-c2ncnc(Nc3ccc(N4CCN(C5COC5)CC4)cc3)n2)ccc1OCC1(C#N)COC1", "study-system": "Tyrosine-protein kinase JAK2 (Homo sapiens)", "IC50": "216 nM"}
{"compound": "CN(C(=O)c1ccc(Nc2nccc(-c3cnn(C(CC#N)C4CCCC4)c3)n2)cc1)[C@H]1CC[C@@H](O)CC1 (mixture of isomers)", "study-system": "Tyrosine-protein kinase JAK2 (Homo sapiens)", "IC50": "< 100 nM"}
{"compound": "CCC(=O)c1cnc(Nc2cnc(OCCN3CCOCC3)cn2)cc1Nc1cccc(-c2ncn(C)n2)c1OC", "study-system": "Tyrosine-protein kinase JAK2 (Homo sapiens)", "IC50": "≥ 500 nM"}
{"compound": "CC1CCOCc2cc(ccc2OCC2CCCC2)Nc2nccc(n2)-c2ccc(cc2N)C(=O)NC1 (stereo not shown)", "study-system": "Tyrosine-protein kinase JAK2 (Homo sapiens)", "IC50": "101 to 1000 nM"}
{"compound": "O=C(NCC(F)(F)F)C1CCC2(CC1)CCN(Nc1ncnc3[nH]ccc13)CC2", "study-system": "Tyrosine-protein kinase JAK2 (Homo sapiens)", "IC50": "> 1000 nM"}
